Please provide measured pKd for the entries that follow.
target-of-assay: HtpGMtb (Mycobacterium tuberculosis, UniProt P9WMJ7)
Construct: full-length wild type, recombinant in E. coli BL21(DE3), Ni-NTA and SEC, further ion exchange to remove nucleic acid; homodimer
Sequence (P9WMJ7 whole entry): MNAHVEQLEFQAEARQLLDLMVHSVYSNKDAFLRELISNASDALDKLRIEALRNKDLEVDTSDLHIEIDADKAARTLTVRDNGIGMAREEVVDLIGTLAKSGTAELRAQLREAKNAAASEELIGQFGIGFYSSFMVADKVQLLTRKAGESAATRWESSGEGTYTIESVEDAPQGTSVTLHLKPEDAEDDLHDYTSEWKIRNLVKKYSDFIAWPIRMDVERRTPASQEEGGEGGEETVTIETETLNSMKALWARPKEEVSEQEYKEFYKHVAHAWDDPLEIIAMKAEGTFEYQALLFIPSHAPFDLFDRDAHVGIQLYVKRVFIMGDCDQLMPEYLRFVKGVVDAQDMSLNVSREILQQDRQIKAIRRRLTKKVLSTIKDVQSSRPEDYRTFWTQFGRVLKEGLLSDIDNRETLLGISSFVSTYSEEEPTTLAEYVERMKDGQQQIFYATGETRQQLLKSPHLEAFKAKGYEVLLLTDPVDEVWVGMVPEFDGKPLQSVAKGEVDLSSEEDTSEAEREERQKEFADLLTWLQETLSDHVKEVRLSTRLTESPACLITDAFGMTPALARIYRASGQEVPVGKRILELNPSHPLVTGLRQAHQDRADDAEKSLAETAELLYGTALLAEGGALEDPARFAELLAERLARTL
protocol-details: biochemical
In simple prose, pKd is minus the logarithm base ten of a concentration in moles per litre.

Query: Reported pKd, compound Nc1ncnc2c1ncn2[C@@H]1O[C@H](COP(=O)(O)OP(=O)(O)NP(=O)(O)O)[C@@H](O)[C@H]1O : ____
Reply: 4.34

Query: Reported pKd, compound Nc1ncnc2c1ncn2[C@@H]1O[C@H](COP(=O)(O)OP(=O)(O)O)[C@@H](O)[C@H]1O : ____
Reply: 4.47
